B1: POU domain, class 6, transcription factor 2, residues 609 to 663; numbered along this chain, P78424 (parent)
chain: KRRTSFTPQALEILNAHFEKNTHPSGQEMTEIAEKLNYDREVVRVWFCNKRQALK

Variants of: B1
Assay: abundance fitness (aPCA) (normalised: wild type 0, dead -1); higher = more abundant; growth selection in yeast, the domain comes from the species named
Conditions: Homo sapiens

# variant, abundance fitness
measured = [
    ("N15C", -0.086),
    ("A16S", -0.16),
    ("S5A", 0.019),
    ("D39H", -0.113),
    ("Q52S", -0.175),
    ("L36S", -0.6),
    ("R40W", -0.014),
    ("K20T", -0.057),
    ("K1S", -0.275),
    ("A33S", -0.118),
    ("K35F", -0.194),
    ("Q9I", -0.057),
    ("D39K", -0.257),
    ("L54K", -0.159),
    ("L54Q", -0.175),
    ("E31M", 0.061),
    ("K50A", -0.125),
    ("G26E", 0.119),
    ("Y38Q", 0.024),
    ("T22V", 0.105),
    ("W46C", -0.997),
    ("K35C", -0.186),
    ("V43M", -0.931),
    ("V42E", 0.004),
    ("D39W", -0.54),
    ("N37D", -0.042),
    ("F47E", -0.89),
    ("V42D", -0.012),
    ("N21S", -0.17),
    ("R2P", -0.118),
    ("R3M", 0.01),
    ("Q27R", 0.012),
    ("K50S", -0.21),
    ("Q52D", -0.119),
    ("R51F", -0.331),
    ("E31L", -0.288),
    ("Q27N", -0.106),
    ("N15H", -0.085),
    ("V42K", 0.066),
    ("N21M", -0.421),
    ("T7D", -0.402),
    ("R40P", -0.003),
    ("R2T", 0.041),
    ("F6P", 0.039),
    ("K20D", -0.291),
    ("Y38G", -0.2),
    ("N21L", -0.551),
    ("C48T", -0.197),
    ("P8K", -0.138),
    ("S25F", -0.515),
    ("K35V", -0.112),
    ("P8H", -0.177),
    ("R44N", -0.195),
    ("S5C", -0.039),
    ("H23K", -0.034),
    ("N49L", -0.292),
    ("A16Y", -0.151),
    ("E31P", -0.516),
    ("D39T", -0.002),
    ("P8A", 0.022),
    ("A53K", -0.167),
    ("I13L", -0.017),
    ("V43E", -0.762),
    ("N37P", -0.229),
    ("W46P", -0.801),
    ("E28P", -0.998),
    ("E28M", -0.595),
    ("S25M", -0.313),
    ("L14Y", -0.878),
    ("I13E", -0.251),
    ("E31W", -0.131),
    ("S5V", 0.015),
    ("V42Q", -0.124),
    ("Q9Y", -0.088),
    ("F47C", -0.843),
    ("A53P", -0.392),
    ("K20E", -0.007),
    ("R2F", -0.056),
    ("H17Y", -0.065),
    ("I13G", -0.385),
    ("H23V", -0.086),
    ("I32S", -1.07),
    ("K20R", -0.017),
    ("K50G", -0.491),
    ("N15T", -0.217),
    ("R3I", 0.136),
    ("K1D", -0.161),
    ("R44C", -0.076),
    ("L54P", 0.042),
    ("T30Y", -0.25),
    ("C48D", -0.144),
]
